The reported measurements were obtained from patent WO2009150539A2.

Overview of reported surviving mice; i.c.v.; 4 LD50 AahI'; ratio 1:2 (survivors of 4 mice) across a group of binders:
# Assay target: AahI' toxin of Androctonus australis hector (Androctonus australis hector) (UniProt P01479)
# Sequence (P01479 20-82): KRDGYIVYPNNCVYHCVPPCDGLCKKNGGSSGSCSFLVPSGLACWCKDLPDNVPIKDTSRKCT
# Assay protocol: cell-based or functional assay
Observable: surviving mice; i.c.v.; 4 LD50 AahI'; ratio 1:2 (survivors of 4 mice)

1) AahI'D11 (VHH) VHH: QVQLQESGGGSVEAGGSLRLSCATSGFTFSRYAMYWFRQAPGMECEWVSTIHTNGDTYYANSLKGRFTGSRDNAKNTAYLQMNSLKPEDTAVYYCHAPLNDGSTPTHICSRAGSYGYWGQGTQVTVSS : 2
2) AahI'F12 (VHH) VHH: QVQLQESGGGSVQAGGSLRLSCVGPGISYVYNRVGWFRQAPGKESEVVAAFYTSNTSALYYAAQVKGRFTISQGNAKNTVYLQMNNLKPEDSGKYYCATANGGLLSDARGYRHYGQGTQVTVSS : 4
3) AahI'B2 (VHH) VHH: QVQLQESGGGSVQAGGSLRLSCVASEYSYRRNCMAWYRQAPGKEREGVARISTAYDITYYADSANGRFTISQDKAKKTVYLQMNSLKPEDSAMYYCSVSTGSDCYSMSLPRMDYWGKGTQVTVSS : 4
